System: LOX IMVI melanoma
assay-details: NCI tumour cell line growth inhibition, 48 h

- compound: "CS[C@@]1(C(=O)Nc2ccc3[nH]nc(-c4ccc(OC(C)C)nc4)c3c2)CCN(CC(=O)N2CC=C(c3ccc(-c4ncn(C)n4)cc3)CC2)C1"
  censor-symbol: "="
  TGI, µM: 8.28
- compound: "O=C(Nc1cc(Cl)c(Cl)cc1Cl)C(=O)C(C(=O)c1ccc2ccccc2c1)C1OC(=O)c2ccccc21 (stereo not drawn)"
  censor-symbol: "="
  TGI, µM: 39.8
- compound: "O=C1/C(=C\\c2c(-c3ccccc3)nn(-c3ccccc3)c2O)C(c2ccccc2)=NN1c1ccccc1"
  censor-symbol: ">"
  TGI, µM: 100
- compound: "COc1cc(/C=C/C(=O)c2ccc(Nc3nc(Nc4ccccc4)nc(Nc4ccc(Cl)cc4)n3)cc2)cc(OC)c1OC"
  censor-symbol: ">"
  TGI, µM: 32.5
- compound: "CN(C)CCC(C(=O)C(C)(C)C)c1ccccn1 (stereo not drawn)"
  censor-symbol: ">"
  TGI, µM: 100
- compound: "OC1C2C=CCC1CCC2 (stereo not drawn)"
  censor-symbol: ">"
  TGI, µM: 100
- compound: "CCN(CC)c1ccc2nc3c4ccccc4c(=NC(=O)c4ccccc4-c4c5ccc(N(CC)CC)cc5[o+]c5cc(N(CC)CC)ccc45)cc-3oc2c1"
  censor-symbol: "="
  TGI, µM: 4.49
- compound: "CCOc1cc(/C=N\\NC(=O)N/N=C/c2ccc(O)c(OCC)c2)ccc1O"
  censor-symbol: ">"
  TGI, µM: 100
- compound: "CC(C)(C)C(=O)[CH-]C(=O)C(F)(F)C(F)(F)C(F)(F)F.CC(C)(C)C(=O)[CH-]C(=O)C(F)(F)C(F)(F)C(F)(F)F.[O-]CC1OC(O)C(O)C(O)C1O.[O-]CC1OC(O)C(O)C(O)C1O.[Ti+4]"
  censor-symbol: ">"
  TGI, µM: 100
- compound: "CN1CCN(c2ccc3nc4c(nc3c2C(F)(F)F)C(=O)c2ncccc2C4=O)CC1"
  censor-symbol: "="
  TGI, µM: 2.66
- compound: "CCCCOc1ccc(S(=O)(=O)/N=C(\\NN)Nc2ccc(Cl)cc2)cc1"
  censor-symbol: "="
  TGI, µM: 35.6
- compound: "CC12OC3CC(O1)C1(C=O)C4CCC5(C)C(c6ccc(=O)oc6)CCC5(O)C4CCC1(C3)O2 (stereo not drawn)"
  censor-symbol: "="
  TGI, µM: 0.524
- compound: "C[C@@H](Oc1cc(-c2cnn(C3CC4(CCCNC4)C3)c2)cnc1N)c1c(Cl)ccc(F)c1Cl (stereo partly drawn)"
  censor-symbol: "="
  TGI, µM: 2.5
- compound: "Cc1cc2c(=O)[nH]nc(N)c2c(N)n1"
  censor-symbol: ">"
  TGI, µM: 100
- compound: "CN(C)CCOc1nc2ccccc2c2c1-c1ccc(Cl)cc1C2=O"
  censor-symbol: "="
  TGI, µM: 1.78
- compound: "O=C(O)Cc1ccc2c(c1O)C(=O)c1c(ccc(CC(=O)O)c1O)C2=O"
  censor-symbol: ">"
  TGI, µM: 100
- compound: "CC1(C)CC2CC(C)(CN2c2ncnc3ccc(Br)cc23)C1 (stereo not drawn)"
  censor-symbol: "="
  TGI, µM: 26.5
- compound: "CC1(C)O[C@@H](CP(c2ccccc2)c2ccccc2)[C@H](CP(c2ccccc2)c2ccccc2)O1"
  censor-symbol: "="
  TGI, µM: 17.4
- compound: "O=C(NC/C(Cl)=C/Cl)Nc1cccc2c1CCCC2"
  censor-symbol: ">"
  TGI, µM: 100
- compound: "Oc1[nH]c2ccccc2c1N=NC(=S)N1CCCC1"
  censor-symbol: "="
  TGI, µM: 18.3
- compound: "CCOC(=O)CCC(NC(=O)c1ccc(Oc2nc3ccccc3nc2C(=O)OCC)cc1)C(=O)OCC (stereo not drawn)"
  censor-symbol: ">"
  TGI, µM: 100
- compound: "CC(=O)N[C@@H](Cc1ccc(OP(=O)(O)O)cc1)C(=O)N[C@H]1CCC(=O)N2CCC[C@@H](C(=O)NCc3ccc(O)cc3)N2C1=O"
  censor-symbol: ">"
  TGI, µM: 25
- compound: "Nn1c(N=Nc2c(O)[nH]c3ccccc23)n[nH]c1=S"
  censor-symbol: ">"
  TGI, µM: 100
- compound: "Oc1[nH]c2ccc(Cl)cc2c1/C=c1/ccc2c(c1)N=C(c1cc(F)cc(F)c1)N=2"
  censor-symbol: ">"
  TGI, µM: 100
- compound: "Cc1ccc(S(=O)(=O)NCCSS(=O)(=O)c2ccc(C)cc2)cc1"
  censor-symbol: "="
  TGI, µM: 53.5
- compound: "CC1=NN(c2ccccc2)C(=O)C1=C1SCCCS1"
  censor-symbol: "="
  TGI, µM: 55.8
- compound: "O=C1N[C@@H]2c3c(Br)sc(Br)c3C(=O)[C@@H]2N1"
  censor-symbol: "="
  TGI, µM: 4.28
- compound: "O=c1cc(-c2nc3ccccc3[nH]2)[nH]c2nc(-c3nc4ccccc4[nH]3)cc(-c3ccc(Cl)cc3)c12"
  censor-symbol: "="
  TGI, µM: 31.8
- compound: "O=[N+]([O-])c1ccc(N2N=C(c3ccc4ccccc4c3O)CC2c2ccc(Cl)cc2Cl)c([N+](=O)[O-])c1 (stereo not drawn)"
  censor-symbol: ">"
  TGI, µM: 100
- compound: "Cc1c(N2C(=O)/C(=C\\c3ccc(N(C)C)cc3)N=C2c2ccccc2)c(=O)n(-c2ccccc2)n1C"
  censor-symbol: ">"
  TGI, µM: 100
- compound: "C[N+](C)(Cc1ccc(NC(=O)CCCC(=O)ON2C(=O)CCC2=O)cc1)c1ccccc1"
  censor-symbol: ">"
  TGI, µM: 100
- compound: "C[C@@H]1CN2[C@H]3[C@@H]1CC[C@]31CCC(=O)O[C@]1(C)[C@@H]1CC[C@H]3CCC=C3[C@@H]12"
  censor-symbol: ">"
  TGI, µM: 70
- compound: "CC(C)N(C[C@H]1O[C@@H](n2cnc3c(N)ncnc32)[C@H](O)[C@@H]1O)C1CC(CCc2nc3ccc(C(C)(C)C)cc3[nH]2)C1 (stereo partly drawn)"
  censor-symbol: ">"
  TGI, µM: 100
- compound: "O=C(CC1(O)C(=O)Nc2c(Cl)ccc(Cl)c21)c1ccc(C2CC2)cc1 (stereo not drawn)"
  censor-symbol: "="
  TGI, µM: 14
- compound: "C/C(CN1C(=O)c2ccccc2C1=O)=N\\NS(=O)(=O)c1ccc(F)cc1"
  censor-symbol: ">"
  TGI, µM: 100
- compound: "CCOc1cc(NC(C)=O)ccc1C(=O)NN1C(=O)CSC1c1ccc(O)c(OC)c1 (stereo not drawn)"
  censor-symbol: ">"
  TGI, µM: 100
- compound: "O=C(CCO)OCCCCCC/C=C\\CCCCCC/C=C\\CCCCCCCCOC(=O)CCO"
  censor-symbol: "="
  TGI, µM: 36.6
- compound: "ClCC1(CCl)COC1"
  censor-symbol: ">"
  TGI, µM: 100

====

System: HT29 colon
assay-details: NCI tumour cell line growth inhibition, 48 h
assay-readout: TGI (µM)

- compound: "CCOc1cc(/C=N\\NC(=O)N/N=C/c2ccc(O)c(OCC)c2)ccc1O"
  target-under-test: "HT29 colon"
  censor-symbol: ">"
  reading: 100
- compound: "COc1cccc2c1C(=O)c1c(O)c3c(c(O)c1C2=O)C[C@@](O)(/C(C)=N/NC(=O)c1ccc(Cl)c(Cl)c1)C[C@@H]3OC1CC(N)C(O)C(C)O1 (some centres undefined)"
  target-under-test: "HT29 colon"
  censor-symbol: "="
  reading: 0.379
- compound: "CCOC(=O)c1c(N2CCOCC2)[nH]c(=O)c(C(c2ccc(Cl)c([N+](=O)[O-])c2)c2c(O)c(C(=O)OCC)c(N3CCOCC3)[nH]c2=O)c1O"
  target-under-test: "HT29 colon"
  censor-symbol: "="
  reading: 42.1
- compound: "CO[C@H](c1ccccc1)[C@H](C)N(C)c1ccc2ccccc2c1C1=NC(C)(C)CO1"
  target-under-test: "HT29 colon"
  censor-symbol: "="
  reading: 25.1

====

System: UO-31 renal
assay-details: NCI tumour cell line growth inhibition, 48 h; in the data active = GI50 below about 0.43 µM; inactive = the rest
Where a SMILES comes first, the peptide text is derived from it. The star is where a group is joined. Boc = CC(C)(C)OC(=O)*; OBn = c1ccc(CO*)cc1
Outcomes: active, inactive

- molecule: "N#CSCC(=O)c1ccc(Cl)cc1"
  answer-label: "inactive"
- molecule: "O=[N+]([O-])c1ccc(-c2ccccc2)c([As](=O)(O)O)c1"
  answer-label: "inactive"
- molecule: "COc1ccc(NC(=O)O[C@H]2[C@H](O[C@H]3[C@@H](O)COC(O[C@H]4C[C@H]5[C@@H]6CC=C7C[C@@H](O)CC[C@]7(C)[C@H]6CC[C@]5(C)[C@H]4[C@H](C)C(=O)CCC(C)C)[C@@H]3OC(C)=O)OC[C@@H](O)[C@@H]2O)cc1 (some centres undefined)"
  answer-label: "active"
- molecule: "COC(=O)Nc1nc2ccc(Sc3ccccc3)cc2[nH]1"
  answer-label: "inactive"
- molecule: "O=C(/C=C/c1cccc(B(O)O)c1)c1cccc(B(O)O)c1"
  answer-label: "inactive"
- molecule: "CC(C)CC(NC(=O)OC(C)(C)C)C(=O)NC(CCC(=O)OCc1ccccc1)C(N)=O (stereo not drawn) (Boc-Leu-Glu(OBn)-NH2; configuration not given here)"
  answer-label: "inactive"
- molecule: "O=C(Nc1ccc(S(=O)(=O)NC2CCCCCC2)cc1)C(c1ccccc1)S(=O)(=O)c1ccc(F)cc1 (centres undefined)"
  answer-label: "active"
- molecule: "CC[C@@]1(OC(=O)CN)C(=O)OCc2c1cc1n(c2=O)Cc2cc3c(N)c4c(cc3nc2-1)OCO4"
  answer-label: "active"
- molecule: "COc1ccc(-n2cc(-c3ccc(OC)c(OC)c3)nc2SCc2ccccc2)cc1Cl"
  answer-label: "inactive"
